B1: TPR t1 (parent)
chain: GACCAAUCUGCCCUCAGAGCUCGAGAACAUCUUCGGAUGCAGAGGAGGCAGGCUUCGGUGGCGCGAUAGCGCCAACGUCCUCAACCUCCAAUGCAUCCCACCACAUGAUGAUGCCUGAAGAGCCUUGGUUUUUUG

# Variants of: B1
# assay.method.text: polymerase ribozyme fitness, log enrichment relative to wild type (log ratio); higher = more active; in vitro selection for triplet polymerase activity
Returns fulfilled if the recorded polymerase ribozyme fitness (log ratio) is greater than or equal to -4, and not fulfilled otherwise.

Worked examples follow.
| biopolymer.sequence | label.class |
| --- | --- |
| GACCAAUCUGCCCUCAGAGCUCGAGAACAUCUUCGGAUGCAGAGGAGGCAGGCAUCGGUGGCGCGAUAGCGCCAACGUCCUCAACCUCUAAUGCACCCCACCACAUGAUGAUGCCUGAAGAGCCUUAGUUUUUUG [U54A C89U U96C G127A] | fulfilled |
| GACCAAUCUGCCCUCAGAGCUCGAGAACAUCUUCUGAUGCAGAGGAGGCAGGCUUCGGUGGCGCGAUAGCGCCAACGUCCUCAACCUCCAAUGCAUCCCACCACAUGAUGAUGCCUGAAGAGACUUGGUUUUUUG [G35U C123A] | fulfilled |
| GACCAAUCUGCCCUCAGAGCUCGAGAACAUCUUCGGAUGCAGAGGAGGGAGGCUUCGGUGGCGCGAUAGCGCCAACGUCCUCAACCUCCAAUGCAUCCCACCACAUGAUAAUGCCUGAAGAGCCUUGGUUUUUUG [C49G G110A] | fulfilled |
| GACCAAUCUGCCCUCAGAGCUCGAGAACAUCUUCGGAUUCAGAGGAGGCAGGCUUCGGUGGCGCGAUAGCGCCAACGUCCUCAACCUCCAAUGCAUCCCACCACAUGAUGAUGCCUUCAGAGCCUUGGUUUUUUG [G39U G117U A118C] | not fulfilled |
| GACCAAUCUGCCCUCAGAGCUCGAGAACAUCUUCGGAUGCAGAGGAGGCAGGCUUCGGUCGCGCGAUAGCGCCAACGUCCUCAACCUCCCAUGCAUUCCACCACAUGAUGAUGCCUCAAGAGCCUUGGUUUUUUG [G60C A90C C97U G117C] | not fulfilled |

Query: Does GACCAAUCUGCCCUCAGAGCUCGAGAACAUCUUCGGUUGCAGAGGAGGCAGGCUGCGGUGGCGCGAUAGCGCCAACGUCCUCAACCUCCAAUGCAUCCCACCACAUGAUGAUGCCUGAAGAGCCUUGGUUUUUUG [A37U U55G] have a reported polymerase ribozyme fitness (log ratio) of at least -4?
Response: fulfilled

Query: Then what about the variant GGCCAAUCUGCCCUCAGAGCUCGAGAACGUCUUCGGAUGCAGAGGAGGCAGGCUUCGGUGGCGCGAUAGCACCAACGUCCUCAACCUCCCAUGCAUCCCACCACAUGAUGAUGCCUGAAGAGCCUUGGUUUUUUG [A2G A29G G71A A90C] ?
Response: fulfilled

Query: Then what about the variant GACCAAUCUGCGCGCAGAGCUCGGGAACAUCUUCGGAUGCAGAGGAGGAAGGCUUCGGUGUCGCGAUAGCGCCAACUUCCUCAACCUCCAAUGCAUCCCACCAUAUGAUGAUGCCUGAAGAGCCUUGGUUUUUUG [C12G U14G A24G C49A G61U G77U C104U] ?
Response: not fulfilled

Query: Then what about the variant GACGAAUCGGCCCUCAGAGCUCGAGAACAUCUUCGGAUGCAGAGGAGGCAGGCUUCGGUGUCGCGAUAGCGCCAACGUCCUCAACCUCCAAUGCAUCCCACCACAUGAUGAUGCCUGAACAGCCUUGGUUUUUUG [C4G U9G G61U G120C] ?
Response: fulfilled

Query: Then what about the variant GACCAAUCUGCCCUCAGAGCUCGAGAACAUCUUCGUAUGAAGAGGAGGCAGGCUUCGGUGGCGCGAUAGCGCCAACGUCCUCAACCUCCAAUGCAUCCCACCACAUGAUGAUGCCUGAAGAGCCUUGGUUUUUUG [G36U C40A] ?
Response: fulfilled

Query: Then what about the variant GACCUAUCAGCCCUCAGAGCUCGAGAACAUCUUCGGAUGCAGAGGAGGCAGGCUUCGGUGGCGCGAUAGCGCCAACGUCCUCAACCUCCAAUGCAUCCCACCACAUGAUGAUGCCUGAAGAGCCUUGGUUUUUUG [A5U U9A] ?
Response: fulfilled
